Target: Cannabinoid receptor 1 (Homo sapiens)
Sequence (P21554 whole entry): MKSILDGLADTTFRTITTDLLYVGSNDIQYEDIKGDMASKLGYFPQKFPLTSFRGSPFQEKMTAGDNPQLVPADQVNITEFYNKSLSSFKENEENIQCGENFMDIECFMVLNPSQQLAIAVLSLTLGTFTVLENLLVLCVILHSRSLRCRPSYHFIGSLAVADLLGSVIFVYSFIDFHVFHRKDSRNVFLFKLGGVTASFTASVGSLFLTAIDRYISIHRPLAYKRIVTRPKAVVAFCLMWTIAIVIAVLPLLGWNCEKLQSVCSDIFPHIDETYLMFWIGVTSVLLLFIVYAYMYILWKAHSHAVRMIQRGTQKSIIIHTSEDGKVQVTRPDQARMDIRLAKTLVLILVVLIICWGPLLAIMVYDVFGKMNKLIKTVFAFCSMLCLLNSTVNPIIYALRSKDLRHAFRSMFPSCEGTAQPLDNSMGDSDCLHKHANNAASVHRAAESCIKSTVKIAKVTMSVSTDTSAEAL
Experiment: Displacement of [3H]CP-55940 from human recombinant CB1R expressed in CHO cells
Type: cell-based
measured-attribute: log10 IC50 (log10 of the value in nM)

# compound, system-tested, measured-attribute, observed
records = [
    ("O=C(Cc1ccccc1)N1CCN(S(=O)(=O)c2cc(Cl)cc(Cl)c2)CC1", "Cannabinoid receptor 1 (Homo sapiens)", "log10 IC50", 2.90),
    ("O=C([C@@H]1C[C@H]1c1ccc(C(F)(F)F)cc1)N1CCN(S(=O)(=O)c2cc(-c3ccn[nH]3)cc(C(F)(F)F)c2)CC1", "Cannabinoid receptor 1 (Homo sapiens)", "log10 IC50", -0.52),
    ("O=C(Cc1cccc(C(F)(F)F)c1)N1CCN(S(=O)(=O)c2cc(Cl)cc(Cl)c2)CC1", "Cannabinoid receptor 1 (Homo sapiens)", "log10 IC50", 2.18),
    ("CC1CN(S(=O)(=O)c2cccc3ccccc23)CCN1C(=O)C1CCCCC1 (configuration not stated)", "Cannabinoid receptor 1 (Homo sapiens)", "log10 IC50", 2.49),
    ("O=C([C@@H]1C[C@H]1c1ccc(C(F)(F)F)cc1)N1CCN(S(=O)(=O)c2cc(-n3ccnn3)cc(C(F)(F)F)c2)CC1", "Cannabinoid receptor 1 (Homo sapiens)", "log10 IC50", 1.70),
    ("O=C([C@@H]1C[C@H]1c1ccc(C(F)(F)F)cc1)N1CCN(S(=O)(=O)c2cc(-c3noc(=O)[nH]3)cc(C(F)(F)F)c2)CC1", "Cannabinoid receptor 1 (Homo sapiens)", "log10 IC50", 2.30),
    ("O=C([C@@H]1C[C@H]1c1ccc(C(F)(F)F)cc1)N1CCN(S(=O)(=O)c2cc(O)cc(C(F)(F)F)c2)CC1", "Cannabinoid receptor 1 (Homo sapiens)", "log10 IC50", 0.78),
]
